- target-entity: T1, extracellular binding domain of human SIRPγ (plate-coated) (human, UniProt Q9P1W8 29-360)
- T1 construct: also called hSIRPγ
- T1 sequence (Q9P1W8 29-360 limits assumed): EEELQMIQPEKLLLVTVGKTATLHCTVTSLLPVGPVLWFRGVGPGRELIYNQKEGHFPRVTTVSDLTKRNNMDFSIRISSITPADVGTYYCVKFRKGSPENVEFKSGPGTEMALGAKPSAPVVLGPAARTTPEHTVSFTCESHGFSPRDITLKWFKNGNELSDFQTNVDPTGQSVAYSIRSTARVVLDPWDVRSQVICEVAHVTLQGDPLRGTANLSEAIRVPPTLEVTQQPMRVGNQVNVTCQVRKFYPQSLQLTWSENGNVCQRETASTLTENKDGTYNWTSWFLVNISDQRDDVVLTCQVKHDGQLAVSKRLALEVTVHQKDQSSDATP
- assay-details: ELISA, coated SIRP ECD (2 µg/mL), anti-human IgG, luminescence
observation-type: EC50 (read off the curve)

Solved cases below.
binder: Antibody 68 (antibody, V domains shown) VH: QVQLVQSGAEVKKPGASVKVSCKASGYTFTSYYMYWVRQAPGQGLEWMGWINPNSGNTGYAQKFQGRVTMTRDTSTSTVYMELSSLRSEDTAVYYCAKDRRRGVGLAAAGTSAFDIWGQGTMVTVSS VL: DIQMTQSPSSLSASVGDRVTITCRASQSISNWLAWYQQKPGKAPKLLIYAASSLQSGVPSRFSGSGSGTDFTLTISSLQPEDFATYYCQQSYSTPYTFGQGTKLEIK
EC50 (read off the curve): ~0.5 µg/mL
//
binder: Antibody 60 (antibody, V domains shown) VH: EVQLLESGGGLVQPGGSLRLSCAASGFTLGSYWMHWVRQAPGKGLEWVSLISWDGGSTYYADSVKGRFTISRDNSKNTLYLQMNSLRAEDTAVYYCAKGPWVGYSGYDLNYYYYGMDVWGQGTTVTVSS VL: DIQMTQSPSSLSASVGDRVTITCRASQDIRRALAWYQQKPGKAPKLLIYAASSLQSGVPSRFSGSGSGTDFTLTISSLQPEDFATYYCLQHNSYPPTFGQGTKLEIK
EC50 (read off the curve): ~0.02 µg/mL

Give the measured EC50 (read off the curve) of Antibody 5 (antibody, V domains shown) VH: QVQLVQSGAEVKKPGASVKVSCKASGYTFTGYHIHWVRQAPGQGLEWMGWINPNSGGTNYAQKFQGRVTMTRDTSINTAYMELNRLRSDDTAVFYCARERVGYCSRPSCLDDLNIWGQGTMVTVSS VL: DIQMTQSPSTLSASVGDRVTITCRASQSISSWLAWYQQKPGKAPKLLIYKASSLETGVPSRFSGSGSGTEFTLTISSLQPDDFATYYCQQYDSYYTFGQGTKLEIK . ~0.02 µg/mL
